Could you please report measured viability, T/C for the items listed next?
system: SW1271 complex spheroids with HUVEC/MSC, growth, % test/control; experiment: Anticancer human tumor SW1271 cell line growth inhibition [AhR]; conditions: second compound 10 µM; first compound 0.1 µM; stronger effect = lower value;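 also: spheroids exposed to agents for 7 days before readout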
Reply with just the number (in %).

Looking up Nc1ncn(C2CC(O)C(CO)O2)c(=O)n1 (stereo not given) + CC(CO)NC(=O)c1cc(-c2ccc(Cl)cc2)nn(-c2cnn(C)c2)c1=O , I see its viability, T/C listed as 67.2

Looking up COc1cc(C2c3cc4c(cc3C(OC3OC5COC(C)OC5C(O)C3O)C3COC(=O)C23)OCO4)cc(OC)c1O (stereo not given) + CC(CO)NC(=O)c1cc(-c2ccc(Cl)cc2)nn(-c2cnn(C)c2)c1=O , I see its viability, T/C listed as 65

Looking up COc1cccc2c1C(=O)c1c(O)c3c(c(O)c1C2=O)CC(O)(C(=O)CO)CC3OC1CC(N)C(O)C(C)O1 (stereo not given) + CC(CO)NC(=O)c1cc(-c2ccc(Cl)cc2)nn(-c2cnn(C)c2)c1=O , I see its viability, T/C listed as 61.3

Looking up Cn1ncnc1C1c2n[nH]c(=O)c3cc(F)cc(c23)NC1c1ccc(F)cc1 (stereo not given) + Cc1cncc(-c2nc(NCCc3c[nH]c4ccccc34)c3ncn(C(C)C)c3n2)c1 , I see its viability, T/C listed as 40.7

Looking up Nc1ncn(C2CC(O)C(CO)O2)c(=O)n1 (stereo not given) + Cc1cncc(-c2nc(NCCc3c[nH]c4ccccc34)c3ncn(C(C)C)c3n2)c1 , I see its viability, T/C listed as 53

###

tested on: SW1271 complex spheroids with HUVEC/MSC, growth, % test/control; assay: Anticancer human tumor SW1271 cell line growth inhibition [AhR]; settings: second compound 0.316 µM; first compound 3.16 µM; stronger effect = lower value;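 also: spheroids exposed to agents for 7 days before readout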
EXPERIMENTAL_READOUT: viability, T/C (%)
Reply with just the number (in %).

Looking up O=C(C=Cc1cccc(S(=O)(=O)Nc2ccccc2)c1)NO + Cc1cncc(-c2nc(NCCc3c[nH]c4ccccc34)c3ncn(C(C)C)c3n2)c1 , I see its viability, T/C listed as 20.2

Looking up CC1(C)CCC(CN2CCN(c3ccc(C(=O)NS(=O)(=O)c4ccc(NCC5CCOCC5)c([N+](=O)[O-])c4)c(Oc4cnc5[nH]ccc5c4)c3)CC2)=C(c2ccc(Cl)cc2)C1 + CC(CO)NC(=O)c1cc(-c2ccc(Cl)cc2)nn(-c2cnn(C)c2)c1=O , I see its viability, T/C listed as 100

Looking up CC(C)c1c(-c2ccccc2)nc2c(C#N)c[nH]n2c1=O + CC(CO)NC(=O)c1cc(-c2ccc(Cl)cc2)nn(-c2cnn(C)c2)c1=O , I see its viability, T/C listed as 93.8

Looking up COc1cccc2c1C(=O)c1c(O)c3c(c(O)c1C2=O)CC(O)(C(=O)CO)CC3OC1CC(N)C(O)C(C)O1 (stereo unspecified) + Cc1ccccc1N=Nc1ccc(NC(=O)c2ccnn2C)c(C)c1 , I see its viability, T/C listed as 2.63

Looking up COc1cc(C2c3cc4c(cc3C(OC3OC5COC(C)OC5C(O)C3O)C3COC(=O)C23)OCO4)cc(OC)c1O (stereo unspecified) + Cc1ccccc1N=Nc1ccc(NC(=O)c2ccnn2C)c(C)c1 , I see its viability, T/C listed as 40.4

Looking up O=C(C=Cc1cccc(S(=O)(=O)Nc2ccccc2)c1)NO + CC(CO)NC(=O)c1cc(-c2ccc(Cl)cc2)nn(-c2cnn(C)c2)c1=O , I see its viability, T/C listed as 16.6

Looking up NS(=O)(=O)OCC1CC(n2ccc3c(NC4CCc5ccccc54)ncnc32)CC1O (stereo unspecified) + CC(CO)NC(=O)c1cc(-c2ccc(Cl)cc2)nn(-c2cnn(C)c2)c1=O , I see its viability, T/C listed as 47.3

Looking up CC1COCCN1c1cc(C2(S(C)(=N)=O)CC2)nc(-c2ccnc3[nH]ccc23)n1 (stereo unspecified) + Cc1cncc(-c2nc(NCCc3c[nH]c4ccccc34)c3ncn(C(C)C)c3n2)c1 , I see its viability, T/C listed as 71.7

Looking up O=C(c1cc(Cc2n[nH]c(=O)c3ccccc23)ccc1F)N1CCN(C(=O)C2CC2)CC1 + Cc1ccccc1N=Nc1ccc(NC(=O)c2ccnn2C)c(C)c1 , I see its viability, T/C listed as 96.3

Looking up Nc1ccn(C2OC(CO)C(O)C2(F)F)c(=O)n1 (stereo unspecified) + Cc1ccccc1N=Nc1ccc(NC(=O)c2ccnn2C)c(C)c1 , I see its viability, T/C listed as 39

Looking up COc1cc(Nc2ncc3c(n2)-c2ccc(Cl)cc2C(c2c(F)cccc2OC)=NC3)ccc1C(=O)O + CC(CO)NC(=O)c1cc(-c2ccc(Cl)cc2)nn(-c2cnn(C)c2)c1=O , I see its viability, T/C listed as 52.5

Looking up COc1ccc([C@@H](O)c2cc(-c3ncnc4cc(N5CCOCC5)ccc34)c(F)cc2Cl)nn1 + CC(CO)NC(=O)c1cc(-c2ccc(Cl)cc2)nn(-c2cnn(C)c2)c1=O , I see its viability, T/C listed as 43.1

Looking up Nc1ccn(C2OC(CO)C(O)C2(F)F)c(=O)n1 (stereo unspecified) + CC(CO)NC(=O)c1cc(-c2ccc(Cl)cc2)nn(-c2cnn(C)c2)c1=O , I see its viability, T/C listed as 54.9

Looking up Nc1ccccc1NC(=O)c1ccc(CNC(=O)OCc2cccnc2)cc1 + Cc1cncc(-c2nc(NCCc3c[nH]c4ccccc34)c3ncn(C(C)C)c3n2)c1 , I see its viability, T/C listed as 35.5

Looking up O=C(c1cc(Cc2n[nH]c(=O)c3ccccc23)ccc1F)N1CCN(C(=O)C2CC2)CC1 + CC(CO)NC(=O)c1cc(-c2ccc(Cl)cc2)nn(-c2cnn(C)c2)c1=O , I see its viability, T/C listed as 77.7

Looking up COc1ccc([C@@H](O)c2cc(-c3ncnc4cc(N5CCOCC5)ccc34)c(F)cc2Cl)nn1 + Cc1ccccc1N=Nc1ccc(NC(=O)c2ccnn2C)c(C)c1 , I see its viability, T/C listed as 47.6

###

Could you please report measured pIC50 for the items listed next?
test system: SW1271 complex spheroids with HUVEC/MSC, growth, % test/control; assay: Anticancer human tumor SW1271 cell line growth inhibition [AhR]; conditions: curve of first compound; second compound 10 µM;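 also: spheroids exposed to agents for 7 days before readout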
// pIC50 is dimensionless: -log10 of concentration (M)

Looking up CCc1c2c(nc3ccc(O)cc13)-c1cc3c(c(=O)n1C2)COC(=O)[C@]3(O)CC + Cc1ccccc1N=Nc1ccc(NC(=O)c2ccnn2C)c(C)c1 , I see its pIC50 listed as 7.10

Looking up CC(C)CC(NC(=O)C(Cc1ccccc1)NC(=O)c1cnccn1)B(O)O (stereo not given) + CC(CO)NC(=O)c1cc(-c2ccc(Cl)cc2)nn(-c2cnn(C)c2)c1=O , I see its pIC50 listed as 8.36

###

Tested on: SW1271 complex spheroids with HUVEC/MSC, growth, % test/control
Assay: Anticancer human tumor SW1271 cell line growth inhibition [AhR];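 also: spheroids exposed to agents for 7 days before readout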
Conditions: second compound 1 µM; first compound 0.316 µM; stronger effect = lower value
Source text: Multicellular complex tumor spheroid response to aryl hydrocarbon receptor antagonists in combination with a variety of drugs and investigational agents in selected tumor cell lines […] Compounds. […] If the clinical Cmax for an agent had not been determined, the highest concentration tested was 10 microM (Table 1). […]
EXPERIMENTAL_READOUT: viability, T/C (%)
Reply with just the number (in %).

Looking up COc1ccc([C@@H](O)c2cc(-c3ncnc4cc(N5CCOCC5)ccc34)c(F)cc2Cl)nn1 + CC(CO)NC(=O)c1cc(-c2ccc(Cl)cc2)nn(-c2cnn(C)c2)c1=O , I see its viability, T/C listed as 78.6

Looking up COc1cccc2c1C(=O)c1c(O)c3c(c(O)c1C2=O)CC(O)(C(=O)CO)CC3OC1CC(N)C(O)C(C)O1 (configuration not stated) + CC(CO)NC(=O)c1cc(-c2ccc(Cl)cc2)nn(-c2cnn(C)c2)c1=O , I see its viability, T/C listed as 39.2

Looking up Nc1ncn(C2CC(O)C(CO)O2)c(=O)n1 (configuration not stated) + CC(CO)NC(=O)c1cc(-c2ccc(Cl)cc2)nn(-c2cnn(C)c2)c1=O , I see its viability, T/C listed as 75.8

Looking up Nc1ncn(C2CC(O)C(CO)O2)c(=O)n1 (configuration not stated) + Cc1cncc(-c2nc(NCCc3c[nH]c4ccccc34)c3ncn(C(C)C)c3n2)c1 , I see its viability, T/C listed as 111

Looking up CC1COCCN1c1cc(C2(S(C)(=N)=O)CC2)nc(-c2ccnc3[nH]ccc23)n1 (configuration not stated) + Cc1ccccc1N=Nc1ccc(NC(=O)c2ccnn2C)c(C)c1 , I see its viability, T/C listed as 106

Looking up COc1cc(C2c3cc4c(cc3C(OC3OC5COC(C)OC5C(O)C3O)C3COC(=O)C23)OCO4)cc(OC)c1O (configuration not stated) + CC(CO)NC(=O)c1cc(-c2ccc(Cl)cc2)nn(-c2cnn(C)c2)c1=O , I see its viability, T/C listed as 59.4

Looking up CC1(C)CCC(CN2CCN(c3ccc(C(=O)NS(=O)(=O)c4ccc(NCC5CCOCC5)c([N+](=O)[O-])c4)c(Oc4cnc5[nH]ccc5c4)c3)CC2)=C(c2ccc(Cl)cc2)C1 + Cc1cncc(-c2nc(NCCc3c[nH]c4ccccc34)c3ncn(C(C)C)c3n2)c1 , I see its viability, T/C listed as 104
